System: TO-3-N3 (biotin conjugate)
Assay summary: pull-down binding Z-score (relative to library population); higher = stronger binding
Condition description: RNA library: Library-2
Assay readout: pull-down binding Z-score

{"columns": ["Residue sequence", "Assay readout", "Readout value"],
 "data": [
  ["UGAUGGUGUUCCAUUUGUAGUUUCAACUGGAUACCACUUCA [DMSMaPseq_invitro_SARS-CoV-2_Motif_261]", "pull-down binding Z-score", -0.0305]
]}

QUERY: I'd like to know its pull-down binding Z-score. The sequence in question is CUUGGCACCUUUGGCCUUAG [hsa-mir-4540]
RESULT: 0.0499

QUERY: Tell me the measured pull-down binding Z-score of CAGAGCUGCAGCUGCUCCACCCUG [hsa-mir-6730] , please.
RESULT: 0.563

QUERY: Look up pull-down binding Z-score: CUCUCCUGACCAGCUGAGCUGGAGGAGAG [hsa-mir-3160-2]
RESULT: -0.0412

QUERY: Can you look up the measured pull-down binding Z-score of CAACUUACAAAUUAAAUGUUG for me?
RESULT: -0.448

QUERY: Dear colleague, I am looking for the recorded pull-down binding Z-score of the following sequence: AGCAUCUGAAUGGGUACAGUUGUUGU [hsa-mir-6818]
RESULT: 0.0263

QUERY: Quick one: pull-down binding Z-score for UAGACAAUUCUAGUCUUACUAUUAAGAAACCUAAUGAAUUAUCUA [SHAPE_invivo_SARS-CoV-2_Motif_135] ?
RESULT: -1.02

QUERY: Look up pull-down binding Z-score for this sequence: GGGUUGCAUCCUAAGCUGUGCUGGAGCUUCCC [hsa-mir-623]
RESULT: 0.567

QUERY: Reported pull-down binding Z-score, sequence ACAGCAGUCUUACUGAAGGUUUCCUGGAAACCACGCACAUGCUGU [hsa-mir-744] : ____
RESULT: -0.304

QUERY: # lookup: pull-down binding Z-score of UUCUGCUGAAGACUGGUCUCUUCAUGUGUGAG [hsa-mir-6133]
RESULT: -0.389

###

System: TO-N3 (biotin conjugate)
Assay summary: pull-down binding Z-score (relative to library population); higher = stronger binding
Condition description: RNA library: Library-2
I would appreciate it if you labelled entries MET when pull-down binding Z-score is 0.3 or higher, otherwise NOT MET.

// known answers, use as guide
{"columns": ["Residue sequence", "Discrete label"],
 "data": [
  ["GACUUGCUUUAGCACUCAAUUUGCUUUUGCUUGUC", "NOT MET"],
  ["GGAUCCCAGAUCAAACCAGGCCC [hsa-mir-331]", "NOT MET"],
  ["GGAGGGCCUUCUACGGAAGGAGUGCC [IAV_invivo_M1_M2_7_Motif_16+IAV_invivo_M1_M2_7_Motif_16]", "MET"]
]}

QUERY: Is it the case that GGGCUCGUGAUGGCUGGUGGGCCC [hsa-mir-345] has pull-down binding Z-score reaching or exceeding 0.3?
RESULT: NOT MET

QUERY: Quick check, pull-down binding Z-score >= 0.3? GCAGUUAAAAUGUUUGAUGCUUACGUUAAUACGUUUUCAUCAACUUUUAACGU
RESULT: NOT MET

QUERY: Check this sequence for pull-down binding Z-score at or above 0.3: UUUACAUGCUACAGUCAAGAUGCGAA [hsa-mir-15b]
RESULT: NOT MET

QUERY: Decide: is the reported value of pull-down binding Z-score for GCGCUGCCAGAAACUGGCAGCGC [full-UA] equal to or greater than 0.3?
RESULT: NOT MET

###

System: TO-3-N3-2 (biotin conjugate)
Assay summary: pull-down binding Z-score (relative to library population); higher = stronger binding
Condition description: RNA library: Library-2
The reader will find reported pull-down binding Z-score values listed item by item below.
A bare number is all that is needed in reply.

Example results:
{"columns": ["Residue sequence", "Assay readout", "Readout value"],
 "data": [
  ["CCCUAGGACUUACUUGUGCAGGG [hsa-mir-4253]", "pull-down binding Z-score", -0.403],
  ["CCUGACAGACAGCCUGAUAGACAGG [hsa-mir-4661]", "pull-down binding Z-score", 0.168]
]}

QUERY: GET /values?readout=pull-down binding Z-score&item= AGCGCGAAAGU [hsa-mir-1539]
RESULT: 0.0743

QUERY: What does the data say about its pull-down binding Z-score? Entry: AAGACACUAUCUUACAACAACAGGGCUCUU [hsa-mir-550b-1]
RESULT: 0.281

QUERY: Quick one: pull-down binding Z-score of GUCACCAGCCCUCAUGUACUUGUGAC [hsa-mir-6820] ?
RESULT: -0.289

QUERY: # pull-down binding Z-score lookup, item GUUAAAAUAUGAC [SHAPE_invivo_SARS-CoV-2_Motif_271]
RESULT: -0.534

QUERY: // pull-down binding Z-score lookup, key: AGUUCAGGAGGUGGCACUGCUGUGUGUGAGCU [hsa-mir-6876]
RESULT: 0.631

QUERY: # query: pull-down binding Z-score of entry CCUAGAGUCCAUUCUUUACUCUAGG [hsa-mir-4779]
RESULT: -0.586

###

Test system: TO-3-N3 (biotin conjugate)
Assay summary: pull-down binding Z-score (relative to library population); higher = stronger binding
Condition description: RNA library: Library-2
Assay readout: pull-down binding Z-score
Number, no unit, nothing else.

Use the examples below as a reference point.
{"columns": ["Residue sequence", "System under test", "pull-down binding Z-score"],
 "data": [
  ["CAUGCGCUAUCUCUGUGUCGUAUG [hsa-mir-380]", "TO-3-N3 (biotin conjugate)", -0.0846],
  ["AUCUGAUGUUGAAUACUCUUUAAGU [hsa-mir-1245a]", "TO-3-N3 (biotin conjugate)", -0.143],
  ["CAUGUGGUGGAACGAUGGAAACGGAACAUG [hsa-mir-218-2]", "TO-3-N3 (biotin conjugate)", -0.477],
  ["UUGACCAAUCAUCUUAUUGACUAGA [hsa-mir-6502]", "TO-3-N3 (biotin conjugate)", -0.403],
  ["GUCCGGGUGGGUUCCGGCA [hsa-mir-657]", "TO-3-N3 (biotin conjugate)", 1.07],
  ["AGAGGCUGUGGGCAGGGGGAGAUGUGAAGGAAAGAACUAGGACCCAUUCAUCCACU [hsa-mir-6807]", "TO-3-N3 (biotin conjugate)", 2.51],
  ["CGGGAACCUGCCUCCCG [hsa-mir-596]", "TO-3-N3 (biotin conjugate)", 0.264],
  ["GCUGGAUUUCCCAGCUUGACUCUAAC [hsa-mir-200a]", "TO-3-N3 (biotin conjugate)", -0.14],
  ["UGCAGUGAGCAACCUACACAACUGCA [hsa-mir-5589]", "TO-3-N3 (biotin conjugate)", -0.0632],
  ["AUUUUUCUAAACUGAUAAAU [DMSMaPseq_invitro_SARS-CoV-2_Motif_131]", "TO-3-N3 (biotin conjugate)", -0.374]
]}

QUERY: Fill in the recorded pull-down binding Z-score for this sequence, with TO-3-N3 (biotin conjugate) as test system: GAUCAGUUUCACCUAAACUGUUC
RESULT: -1.06

QUERY: Give pull-down binding Z-score (TO-3-N3 (biotin conjugate)) of the following sequence: GUGAGAUGUUCAUACAAUCCCUCAC [hsa-mir-216a]
RESULT: -0.788

QUERY: Return pull-down binding Z-score measured with TO-3-N3 (biotin conjugate) given this sequence: CAAAUCGCCUCUUCAAUGGAUUUG [hsa-mir-133a-1]
RESULT: 0.308

QUERY: Return pull-down binding Z-score measured with TO-3-N3 (biotin conjugate) given this sequence: AGUAUGGCUACAUACU [DMSMaPseq_invitro_SARS-CoV-2_Motif_53]
RESULT: -0.637

###

Reported values of pull-down binding Z-score for individual entries
Tested on: TO-N3 (biotin conjugate)
Assay summary: pull-down binding Z-score (relative to library population); higher = stronger binding
Condition description: RNA library: Library-2
The answer should be written as a number, with no unit following it.

Observe how each entry below is paired with its result.
{"columns": ["Residue sequence", "Readout value"],
 "data": [
  ["CGCGCGUCGAGUCAGCCGUGUG [hsa-mir-933]", 0.126],
  ["AACAGGAGUCACCUUUUGUU", -0.267],
  ["AUUCAGACUCAGGU [hsa-mir-921]", -0.204]
]}

QUERY: What does the record list as pull-down binding Z-score for CUGCUGAAUCUUCAGAAAGG [hsa-mir-3142] ?
RESULT: -0.164

QUERY: Entry AACUACUAUUCAAACAAUUGUUGAGGUUCAACCUCAAUUAGAGAUGGAACUUACACCAGUUGUUCAGACUAUUGAAGUGAAUAGUUUUAGUGGUU has what pull-down binding Z-score?
RESULT: -0.383

QUERY: Which pull-down binding Z-score value is on record for UAGAAUAGACGGUGACAUGGUACCACAUAUAUCACGUCAACGUCUUACUA [SHAPE_invivo_SARS-CoV-2_Motif_261] ?
RESULT: -0.562

QUERY: GET /values?readout=pull-down binding Z-score&item= CUGAGCGGCUCCAUCCCCCGGCCUGCUCAU [hsa-mir-6729]
RESULT: 1.14

QUERY: Item under review: UCCACAAGGAGGGGAUGACCCUUGUGGG [hsa-mir-4437] . Reported pull-down binding Z-score?
RESULT: 3.14
